Target: Bile acid receptor (Homo sapiens) (UniProt Q96RI1)
Sequence (Q96RI1 whole entry, looked up): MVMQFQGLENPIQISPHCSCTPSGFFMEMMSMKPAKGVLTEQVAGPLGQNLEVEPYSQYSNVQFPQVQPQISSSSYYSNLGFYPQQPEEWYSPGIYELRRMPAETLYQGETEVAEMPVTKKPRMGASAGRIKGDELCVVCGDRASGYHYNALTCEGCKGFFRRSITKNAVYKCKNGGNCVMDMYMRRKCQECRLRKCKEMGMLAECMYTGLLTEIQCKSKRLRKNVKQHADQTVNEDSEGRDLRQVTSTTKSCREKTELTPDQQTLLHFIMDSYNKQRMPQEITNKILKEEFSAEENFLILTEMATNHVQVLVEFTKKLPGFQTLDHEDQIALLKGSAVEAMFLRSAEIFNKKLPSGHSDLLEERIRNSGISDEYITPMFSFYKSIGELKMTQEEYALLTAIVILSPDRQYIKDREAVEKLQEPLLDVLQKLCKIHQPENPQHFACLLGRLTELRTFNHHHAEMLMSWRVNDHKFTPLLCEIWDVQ
Assay: qHTS assay for small molecule agonists of farnesoid X receptor signaling (AID 588527);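 note: series mostly up to about 77 µM; 0% = vehicle basal and 100% = reference agonist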
Conditions: HEK293T FXR-UAS-bla, beta-lactamase ratio, 16 h; hits give high values
Results filed as inconclusive are left out.
readout_kind: activation (%)

[[record]]
compound = "O=S1OCC2C(CO1)C1(Cl)C(Cl)=C(Cl)C2(Cl)C1(Cl)Cl (stereo unspecified)"
readout_kind = "activation"
recorded_result = 2.02

[[record]]
compound = "CC1=C2[C@H](/C=C(\\C)C(=O)O)CC[C@@H](C)[C@H]2CC1"
readout_kind = "activation"
recorded_result = -3.32

[[record]]
compound = "C=CC(=C)C"
readout_kind = "activation"
recorded_result = -1.71

[[record]]
compound = "CCCCCCCCCCCCCC(=O)O"
readout_kind = "activation"
recorded_result = 0.574

[[record]]
compound = "OC[C@H]1O[C@@](CO)(O[C@H]2O[C@H](CO)[C@@H](O)[C@H](O)[C@H]2O)[C@@H](O)[C@@H]1O"
readout_kind = "activation"
recorded_result = -1.48

[[record]]
compound = "S=C=Nc1cccc2ccccc12"
readout_kind = "activation"
recorded_result = -1.78

[[record]]
compound = "O=S(=O)(O)c1ccccc1"
readout_kind = "activation"
recorded_result = 0.473

[[record]]
compound = "C[C@H]1O[C@@H](O[C@H]2[C@@H](O)C[C@H](O[C@H]3[C@@H](O)C[C@H](O[C@H]4CC[C@@]5(C)[C@H](CC[C@@H]6[C@@H]5C[C@@H](O)[C@]5(C)[C@@H](C7=CC(=O)OC7)CC[C@]65O)C4)O[C@@H]3C)O[C@@H]2C)C[C@H](O)[C@@H]1O"
readout_kind = "activation"
recorded_result = -4.19

[[record]]
compound = "Nc1ccc(Br)cc1"
readout_kind = "activation"
recorded_result = 0.791

[[record]]
compound = "CC(C)OC(=O)Nc1cccc(Cl)c1"
readout_kind = "activation"
recorded_result = 2.06

[[record]]
compound = "CCCSC(=O)Cl"
readout_kind = "activation"
recorded_result = 0.0371

[[record]]
compound = "O=NN(CCO)CCO"
readout_kind = "activation"
recorded_result = 3.77

[[record]]
compound = "CC1=CCC(C(C)(C)O)CC1 (stereo unspecified)"
readout_kind = "activation"
recorded_result = -1.09

[[record]]
compound = "O=[N+]([O-])c1ccc(Cl)c(Cl)c1"
readout_kind = "activation"
recorded_result = 1.09

[[record]]
compound = "O[C@@H]([C@H](O)[C@@H](O)CBr)[C@@H](O)CBr"
readout_kind = "activation"
recorded_result = -2.21

[[record]]
compound = "Cc1cccc(C#N)c1"
readout_kind = "activation"
recorded_result = -2.16

[[record]]
compound = "Clc1ccc(-c2nc3sccn3c2/C=N/OCc2ccc(Cl)c(Cl)c2)cc1"
readout_kind = "activation"
recorded_result = 14.7

[[record]]
compound = "Cc1ccc2ccccc2c1"
readout_kind = "activation"
recorded_result = -0.561

[[record]]
compound = "CCCCCCCC(=O)Cl"
readout_kind = "activation"
recorded_result = 0.289

[[record]]
compound = "ClCBr"
readout_kind = "activation"
recorded_result = -2.9

[[record]]
compound = "CCOc1ccc(N)cc1"
readout_kind = "activation"
recorded_result = -2.12

[[record]]
compound = "CC(Cl)Cl"
readout_kind = "activation"
recorded_result = -0.0258

[[record]]
compound = "C=CCc1ccc(OC)c(OC)c1"
readout_kind = "activation"
recorded_result = 0.141

[[record]]
compound = "C#CCOS(=O)OC1CCCCC1Oc1ccc(C(C)(C)C)cc1 (stereo unspecified)"
readout_kind = "activation"
recorded_result = 6.98

[[record]]
compound = "Nc1ccccc1Cl"
readout_kind = "activation"
recorded_result = -1.66

[[record]]
compound = "C[C@H](CCC(=O)O)[C@H]1CC[C@H]2[C@@H]3[C@H](O)C[C@@H]4C[C@H](O)CC[C@]4(C)[C@H]3C[C@H](O)[C@]12C"
readout_kind = "activation"
recorded_result = 1.14


Source listed as PubChem BioAssay (NCATS).
